B1: YPEL3 (parent)
chain: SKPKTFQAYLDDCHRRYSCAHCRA

Variants of: B1
test_description: protein stability index of a GFP-peptide fusion (GPS, HEK-293T) (PSI 1-6); higher = more stable;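 also: lentivirally expressed fusions sorted by FACS into six bins by GFP to DsRed ratio, PSI derived from sequencing read proportions per bin multiplied by bin number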
measurement_setup: c terminus: a fixed tail appended
# reported protein stability index; entries follow
measured_quantity: protein stability index

>>> endpoint_result("MKPKTFQAYLDDCHRRYSCAHCRA [S1M]")
2
>>> endpoint_result("SKPKTFCAYLDDCHRRYSCAHCRA [Q7C]")
1.96
>>> endpoint_result("SKPKWFQAYLDDCHRRYSCAHCRA [T5W]")
1.99
>>> endpoint_result("SKPKTFQAYLDDCARRYSCAHCRA [H14A]")
2.03
